Catalogue of CAR-J2 EC50 values
target: human GPRC5D (human, UniProt Q9NZD1 1-345); assay: cell-based or functional assay
Sequence (Q9NZD1 whole entry): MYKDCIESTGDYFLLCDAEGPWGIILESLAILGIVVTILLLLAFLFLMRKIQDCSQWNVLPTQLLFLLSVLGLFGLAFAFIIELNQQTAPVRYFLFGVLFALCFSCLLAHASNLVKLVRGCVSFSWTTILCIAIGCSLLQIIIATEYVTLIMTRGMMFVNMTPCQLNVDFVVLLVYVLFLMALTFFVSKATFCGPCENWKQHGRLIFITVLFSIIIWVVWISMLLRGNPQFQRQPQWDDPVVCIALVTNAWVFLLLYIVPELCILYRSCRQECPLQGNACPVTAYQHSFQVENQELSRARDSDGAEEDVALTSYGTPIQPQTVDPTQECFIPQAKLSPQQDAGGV

- BINDER: "P1AE5744 (antibody, V domains shown) VH: QVQLVESGGGVVQPGRSLRLSCAASGFSFSNYGMAWVRQAPGKGLEWVASISTGGGNTYYADSVKGRFTISRDNSKNTLYLQMNSLRAEDTAVYYCTRHDRGGLYWGQGTMVTVSS VL: DIVMTQSPLSLPVTPGEPASISCRSSKSLLHSNGITYVYWYLQKPGQSPQVLIYRMSNLASGVPDRFSGSGSGTDFTLKISRVEAEDVGVYHCGQLLENPYTFGQGTKLEIK"
  CAR-J2 EC50, ng/mL: 3.63
- BINDER: "P1AE5751 (antibody, V domains shown) VH: EVQLVESGGGVVQPGRSLRLSCAASGFSFSNYGMAWVRQAPGKGLEWVASISTGGGNTYYADSVKGRFTISRDNAKNTLYLQMNSLRAEDTAVYYCTRHDRGGLYWGQGTMVTVSS VL: DIVMTQSPLSLPVTPGEPASISCRSSKSLLHSNGITYVYWYLQKPGKSPQVLIYRMSNLASGVPDRFSGSGSGTDFTLKISRVEAEDVGVYHCGQLLENPYTFGQGTKLEIK"
  CAR-J2 EC50, ng/mL: 6.44
- BINDER: "P1AE5737 (antibody, V domains shown) VH: QVQLVESGGGVVQPGRSLRLSCAASGFSFSNYGMAWVRQAPGKGLEWVASISTGGGNTYYRDSVKGRFTISRDNSKNTLYLQMNSLRAEDTAVYYCTRHDRGGLYWGQGTMVTVSS VL: DIVMTQSPDSLAVSLGERATINCKSSKSLLHSNGITYVYWYQQKPGQPPKLLIYRMSNLASGVPDRFSGSGSGTDFTLTISSLQAEDVAVYHCGQLLENPYTFGQGTKLEIK"
  CAR-J2 EC50, ng/mL: 2.95

Source of measurements: patent US20220411491A1
